target: Acetylcholinesterase (Electrophorus electricus, UniProt O42275)
Sequence (O42275 whole entry): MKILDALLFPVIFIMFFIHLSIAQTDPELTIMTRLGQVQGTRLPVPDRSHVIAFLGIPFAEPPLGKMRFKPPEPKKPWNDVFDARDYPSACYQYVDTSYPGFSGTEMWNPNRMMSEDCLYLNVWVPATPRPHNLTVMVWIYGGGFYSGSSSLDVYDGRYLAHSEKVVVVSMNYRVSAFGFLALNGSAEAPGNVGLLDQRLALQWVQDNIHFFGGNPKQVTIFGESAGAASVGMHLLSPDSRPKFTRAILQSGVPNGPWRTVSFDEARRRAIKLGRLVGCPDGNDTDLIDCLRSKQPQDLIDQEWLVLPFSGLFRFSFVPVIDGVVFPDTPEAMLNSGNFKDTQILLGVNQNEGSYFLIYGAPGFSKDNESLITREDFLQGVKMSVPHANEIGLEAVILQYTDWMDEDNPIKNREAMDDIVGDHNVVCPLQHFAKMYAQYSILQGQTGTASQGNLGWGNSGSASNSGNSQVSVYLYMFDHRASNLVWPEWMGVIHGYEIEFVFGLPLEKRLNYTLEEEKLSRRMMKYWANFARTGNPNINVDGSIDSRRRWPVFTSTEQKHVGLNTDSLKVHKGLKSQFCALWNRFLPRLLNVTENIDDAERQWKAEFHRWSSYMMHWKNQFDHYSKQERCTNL
Readings of IC50 for the listed molecules
API: value field is a number in µM; no unit string.

COc1cc(CCC(=O)C2=C(CCc3ccc(O)cc3)NC(=O)NC2c2ccccc2)ccc1O (racemic) :: 10.7
COc1cc(CCC2=C(C(=O)CCc3ccc(O)cc3)C(c3ccccc3)NC(=O)N2)ccc1O (racemic) :: 20.9
COc1cc(CCC(=O)CC(=O)CCc2ccc(O)c(OC)c2)ccc1O [TETRAHYDROCURCUMIN] :: 41.2

Next:
Task item: Look up IC50 of COc1ccc(C2NC(=O)NC(CCc3ccc(O)cc3)=C2C(=O)CCc2ccc(O)c(OC)c2)cc1 (racemic) and report it.
Reply: 5.78
